systemTested: T1, TLR8 WT (hTLR8) (human, UniProt Q9NR97 27-827)
T1 sequence: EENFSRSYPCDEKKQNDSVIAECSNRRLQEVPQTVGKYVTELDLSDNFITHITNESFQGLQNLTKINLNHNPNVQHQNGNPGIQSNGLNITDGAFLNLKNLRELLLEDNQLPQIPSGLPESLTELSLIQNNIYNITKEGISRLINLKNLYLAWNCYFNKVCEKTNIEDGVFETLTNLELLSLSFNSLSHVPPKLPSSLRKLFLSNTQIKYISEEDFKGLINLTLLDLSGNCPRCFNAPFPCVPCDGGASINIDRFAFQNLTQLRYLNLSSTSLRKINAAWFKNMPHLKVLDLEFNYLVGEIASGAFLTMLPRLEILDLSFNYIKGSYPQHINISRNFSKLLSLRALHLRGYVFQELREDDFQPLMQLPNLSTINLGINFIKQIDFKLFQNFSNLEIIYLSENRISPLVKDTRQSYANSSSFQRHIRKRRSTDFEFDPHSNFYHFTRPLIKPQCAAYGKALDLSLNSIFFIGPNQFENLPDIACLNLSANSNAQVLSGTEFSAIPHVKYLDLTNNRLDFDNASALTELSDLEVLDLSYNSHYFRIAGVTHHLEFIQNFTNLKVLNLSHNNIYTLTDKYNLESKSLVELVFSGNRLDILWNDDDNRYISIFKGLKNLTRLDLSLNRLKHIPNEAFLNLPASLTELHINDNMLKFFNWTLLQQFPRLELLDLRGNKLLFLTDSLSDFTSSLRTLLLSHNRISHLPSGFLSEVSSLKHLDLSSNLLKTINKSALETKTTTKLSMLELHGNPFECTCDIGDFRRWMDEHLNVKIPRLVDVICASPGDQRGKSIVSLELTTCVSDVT
procedureDetails: SPR; average; runs 3±1, 4±1, 5±1, 3±0.4, 4±1, 4±1; SPR with recombinant TLR7/TLR8; buffer, pH and temperature not in the material
measurementConditions: protein: recombinant; chain copies: 2; single-stranded
parameter: Kd (µM)
Use µM as the unit, but write only the number.

# lookup: Kd of GAG (XNA, 2'-OMe G1, 2'-OMe A2, DNA G3; phosphorothioate linkages, stereo-random) [GAG-v1 PS (mGmAdG)]
4
